Origin of measurements: ChEMBL document CHEMBL1133893

# measured-on: UniProtKB P30557
# Sequence (P30557 whole entry): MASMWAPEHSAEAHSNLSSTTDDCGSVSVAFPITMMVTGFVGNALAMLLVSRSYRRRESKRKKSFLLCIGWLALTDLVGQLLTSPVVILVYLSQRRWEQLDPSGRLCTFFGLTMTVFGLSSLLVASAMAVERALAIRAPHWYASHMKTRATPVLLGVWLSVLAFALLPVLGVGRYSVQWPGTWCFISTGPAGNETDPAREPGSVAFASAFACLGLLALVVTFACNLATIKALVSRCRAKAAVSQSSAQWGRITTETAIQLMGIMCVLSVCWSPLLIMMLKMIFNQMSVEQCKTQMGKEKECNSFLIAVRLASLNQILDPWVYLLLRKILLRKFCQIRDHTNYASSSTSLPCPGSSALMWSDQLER
# test-summary: Evaluated for its competitive binding affinity towards mouse Prostanoid EP3 receptor in CHO cells expressing prostanoid receptor
pKi: −log10 of the molar value.
quantity: pKi

Check out these entries, answers already filled in.
# smiles-text, assay-value
rows = [
    ("COc1ccccc1C[C@H](O)/C=C/[C@H]1[C@H](O)CC(=O)[C@@H]1SCCCSCC(=O)O", 5.96),
    ("CCCCC[C@H](O)/C=C/[C@H]1[C@H](O)CC(=O)[C@@H]1SCCCSCC(=O)O", 6.66),
    ("O=C(O)CSCCCS[C@H]1C(=O)C[C@@H](O)[C@@H]1/C=C/[C@@H](O)Cc1ccccc1", 6.89),
    ("Cc1cccc(C[C@H](O)/C=C/[C@H]2[C@H](O)CC(=O)[C@@H]2SCCCSCC(=O)O)c1", 7.00),
    ("CCCCC[C@H](O)/C=C/[C@H]1[C@H](O)CC(=O)[C@@H]1CSCCSCC(=O)O", 8.46),
]

A: Cc1ccccc1C[C@H](O)/C=C/[C@H]1[C@H](O)CC(=O)[C@@H]1SCCCSCC(=O)O
B: CCCCC[C@H](O)/C=C/[C@H]1[C@H](O)CC(=O)[C@@H]1SCCSCCC(=O)O
C: COc1cccc(C[C@H](O)/C=C/[C@H]2[C@H](O)CC(=O)[C@@H]2SCCCSCC(=O)O)c1
D: COCc1cccc(C[C@H](O)/C=C/[C@H]2[C@H](O)CC(=O)[C@@H]2SCCCSCC(=O)O)c1
Task item: Would you mind ranking these compounds by ascending pKi? Field: ranking. Enter the labels in the order requested.
Reply: D, C, A, B
(D: 5.92, C: 6.29, A: 6.85, B: 8.36)
